src = the supplement of paper PMC10567573

Measured protein stability index of individual entries
B1: INTS3 (parent)
chain: FSDDEEDLNSKGKKREFRFHPIKE

# Variants of: B1
# Run description: protein stability index of a GFP-peptide fusion (GPS, HEK-293T) (PSI 1-6); higher = more stable;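 also: lentivirally expressed fusions sorted by FACS into six bins by GFP to DsRed ratio, PSI derived from sequencing read proportions per bin multiplied by bin number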
# Protocol conditions: c terminus: a fixed tail appended
Readout label: protein stability index

# Variant key, Reported
records = [
    ("K14F", 2.13),
    ("F19I", 4.68),
    ("E5D", 2.68),
    ("G12R", 2.14),
    ("E16R", 2.23),
    ("R18S", 4.12),
    ("K23R", 2.68),
    ("I22S", 2.63),
    ("H20R", 4.24),
    ("S10E", 2.99),
    ("G12F", 1.91),
    ("N9Y", 2.29),
    ("P21I", 3.7),
    ("D7Q", 2.15),
    ("E16I", 2.58),
    ("K11P", 3.38),
    ("D4H", 2.95),
    ("G12L", 2.29),
    ("P21W", 2.53),
    ("E24A", 2.2),
    ("N9R", 2.76),
    ("E6H", 2.29),
]
